The entries below come with measured cell viability values attached.
System: Mv4-11
Test: cell viability relative to DMSO control (bortezomib = 0%); higher = less growth inhibition
Settings: 10 nM; 72 h
Where a name gives a salt, the structure may show the parent alone.
Kindly provide the numeric value in % only, without the unit symbol.

Answered examples (5):
>>> measured_result("N#CC(=C(/N)Sc1ccccc1N)/C(C#N)=C(\\N)Sc1ccccc1N")
104
>>> measured_result("O=C(O)c1c[nH]c2c(ccc3ccccc32)c1=O")
106
>>> measured_result("O=C(NC(NC(=S)Nc1ccc(F)c([N+](=O)[O-])c1)C(Cl)(Cl)Cl)C(c1ccccc1)c1ccccc1 (stereo not drawn)")
104
>>> measured_result("CN(C)C[C@@H]1CCn2cc(c3ccccc32)C2=C(C(=O)NC2=O)c2cn(c3ccccc23)CCO1 [Ruboxistaurin hydrochloride]")
101
>>> measured_result("N#CC(c1ccnc(NCCc2cccnc2)n1)c1nc2ccccc2s1 (stereo not drawn)")
109

# input compound: COc1cc2nccc(Oc3ccc(NC(=O)NC4CC4)c(Cl)c3)c2cc1C(N)=O [Lenvatinib (E7080)] ; wanted: its cell viability
123

One more compound: Cc1ccc(C(=O)N(CCCN)[C@@H](c2nc3cc(Cl)ccc3c(=O)n2Cc2ccccc2)C(C)C)cc1
6.27

One more compound: C=CC(=O)Nc1cc2c(Nc3ccc(F)c(Cl)c3)ncnc2cc1OCCCN1CCOCC1 [Canertinib (CI-1033)]
112

====

Tested on: Molm13
Assay: cell viability relative to DMSO control (bortezomib = 0%); higher = less growth inhibition
Settings: 10 nM; 72 h
Where a name gives a salt, the structure may show the parent alone.
endpoint name: cell viability (%)
Kindly provide the numeric value in % only, without the unit symbol.

Answered examples (10):
>>> measured_result("CC[C@@](C)(Nc1ccnc(-c2c[nH]c3ncccc23)n1)C(=O)NCC(F)(F)F [Decernotinib(VX-509)]")
98.6
>>> measured_result("O=C1NCCc2[nH]c(-c3ccncc3)cc21")
115
>>> measured_result("CCCS(=O)(=O)Nc1ccc(F)c(C(=O)c2c[nH]c3ncc(-c4ccc(Cl)cc4)cc23)c1F [Vemurafenib (PLX4032, RG7204)]")
101
>>> measured_result("CO[C@H]1C[C@@H]2CC[C@@H](C)[C@@](O)(O2)C(=O)C(=O)N2CCCC[C@H]2C(=O)O[C@H]([C@H](C)C[C@@H]2CC[C@@H](O)[C@H](OC)C2)CC(=O)[C@H](C)/C=C(\\C)[C@@H](O)[C@@H](OC)C(=O)[C@H](C)C[C@H](C)/C=C/C=C/C=C/1C [Rapamycin (Sirolimus)]")
34.4
>>> measured_result("C[C@@H]1O[C@@H](Oc2cc(O)c3c(=O)c(O[C@@H]4O[C@@H](C)[C@H](O)[C@@H](O)[C@H]4O)c(-c4ccc(O)cc4)oc3c2)[C@H](O)[C@H](O)[C@H]1O [Kaempferitrin]")
114
>>> measured_result("COc1ccc2cc1Oc1ccc(cc1)C[C@H]1c3cc(c(OC)cc3CCN1C)Oc1c(O)c(OC)cc3c1[C@H](C2)N(C)CC3 [Fangchinoline]")
90.9
>>> measured_result("CN(N=O)C(=O)N[C@@H](C=O)[C@@H](O)[C@H](O)[C@H](O)CO [Streptozocin]")
89.4
>>> measured_result("N#CC[C@H](C1CCCC1)n1cc(-c2ncnc3[nH]ccc23)cn1")
87.6
>>> measured_result("COc1cc(-c2cc(-c3cccc(O)c3)cnc2N)cc(OC)c1OC")
99.8
>>> measured_result("Nc1cccc(-c2nc(N3CCOCC3)c3oc4ncccc4c3n2)c1 [PIK-inhibitors]")
82.5

Notebook: pull reported cell viability for Molm13, entry COc1ccc(-n2c(SCC#N)nc3sc4c(c3c2=O)CCCC4)cc1 [Necrostatin-5]
102

One more compound: COc1ccc(Cl)cc1NC(=O)Nc1cc(C)nc2ccccc12
129

One more compound: CN(C)C(=O)c1cc2cnc(Nc3ccc(N4CCNCC4)cn3)nc2n1C1CCCC1
113

One more compound: Cn1ncc(Cl)c1-c1cc(C(=O)N[C@H](CN)Cc2cccc(F)c2)sc1Cl [Afuresertib]
111

One more compound: Cc1ccc(F)c(NC(=O)Nc2ccc(-c3cccc4[nH]nc(N)c34)cc2)c1
72.2

One more compound: O=C1Cc2c([nH]c3ccc(Br)cc23)-c2ccccc2N1 [KenPaullone]
91.6

One more compound: Cn1c(=O)n(-c2ccc(C(C)(C)C#N)cc2)c2c3cc(-c4cnc5ccccc5c4)ccc3ncc21
107

One more compound: O=c1cc(N2CCOCC2)oc2c(-c3ccccc3)cccc12
107

One more compound: CNC(=O)c1cc(Oc2ccc(NC(=O)Nc3ccc(Cl)c(C(F)(F)F)c3)cc2)ccn1 [Sorafenib tosylate]
63.1

One more compound: CCN(CC)CCNC(=O)c1c(C)[nH]c(/C=C2\C(=O)Nc3ccc(F)cc32)c1C [Sunitinib]
111

One more compound: CC1(COc2ccc3c(c2)ncn3-c2ccc3cccc(N4CCC(N)CC4)c3n2)COC1 [Crenolanib]
14.9

One more compound: CCN(CC)CC(=O)Nc1c(C)cccc1C [Lidocaine Hydrochloride hydrate]
111

One more compound: Cc1c(CN2CCN(C(=O)[C@H](C)O)CC2)sc2c(N3CCOCC3)nc(-c3cnc(N)nc3)nc12 [Apitolisib (GDC-0980, RG7422)]
108
